# Substrate: C[N+](C)(C)[C@@H](Cc1cnc([S+]([O-])C[C@H](N)C(=O)O)[nH]1)C(=O)[O-]
# experiment: purified protein
# Assay type: biochemical, Mycolicibacterium smegmatis
# conditions: 50 mM KPi pH 8.0, 25 °C, PLP-loaded enzyme, 1 mM DTT, 0.13 mM NADH
readout_label: Km
Entry format: amount then unit.

Look over these answered cases.
>  <protein>
MsEgtE (Mycolicibacterium smegmatis MC2 155) (protein, full-length ORF, pET28a N-terminal hexa-histidine tag, E. coli BL21 (DE3); homodimer (~76 kDa by SEC, predicted 78 kDa)) MMLAQQWRDARPKVAGLHLDSGACSRQSFAVIDATTAHARHEAEVGGYVAAEAATPALDAGRAAVASLIGFAASDVVYTSGSNHAIDLLLSSWPGKRTLACLPGEYGPNLSAMAANGFQVRALPVDDDGRVLVDEASHELSAHPVALVHLTALASHRGIAQPAAELVEACHNAGIPVVIDAAQALGHLDCNVGADAVYSSSRKWLAGPRGVGVLAVRPELAERLQPRIPPSDWPIPMSVLEKLELGEHNAAARVGFSVAVGEHLAAGPTAVRERLAEVGRLSRQVLAEVDGWRVVEPVDQPTAITTLESTDGADPASVRSWLIAERGIVTTACELARAPFEMRTPVLRISPHVDVTVDELEQFAAALREAP

>  <Km>
516.0 ± 122.1 µM

$$$$
>  <protein>
MsEgtE (Mycolicibacterium smegmatis MC2 155; Y106F) (protein, full-length ORF, pET28a N-terminal hexa-histidine tag, E. coli BL21 (DE3); homodimer (~76 kDa by SEC, predicted 78 kDa)) MMLAQQWRDARPKVAGLHLDSGACSRQSFAVIDATTAHARHEAEVGGYVAAEAATPALDAGRAAVASLIGFAASDVVYTSGSNHAIDLLLSSWPGKRTLACLPGEFGPNLSAMAANGFQVRALPVDDDGRVLVDEASHELSAHPVALVHLTALASHRGIAQPAAELVEACHNAGIPVVIDAAQALGHLDCNVGADAVYSSSRKWLAGPRGVGVLAVRPELAERLQPRIPPSDWPIPMSVLEKLELGEHNAAARVGFSVAVGEHLAAGPTAVRERLAEVGRLSRQVLAEVDGWRVVEPVDQPTAITTLESTDGADPASVRSWLIAERGIVTTACELARAPFEMRTPVLRISPHVDVTVDELEQFAAALREAP

>  <Km>
52.1 ± 13.1 µM

$$$$

Next:
Inquiry: # get_value(readout='Km', item= MsEgtE (Mycolicibacterium smegmatis MC2 155; Q183A) (protein, full-length ORF, pET28a N-terminal hexa-histidine tag, E. coli BL21 (DE3); homodimer (~76 kDa by SEC, predicted 78 kDa)) MMLAQQWRDARPKVAGLHLDSGACSRQSFAVIDATTAHARHEAEVGGYVAAEAATPALDAGRAAVASLIGFAASDVVYTSGSNHAIDLLLSSWPGKRTLACLPGEYGPNLSAMAANGFQVRALPVDDDGRVLVDEASHELSAHPVALVHLTALASHRGIAQPAAELVEACHNAGIPVVIDAAAALGHLDCNVGADAVYSSSRKWLAGPRGVGVLAVRPELAERLQPRIPPSDWPIPMSVLEKLELGEHNAAARVGFSVAVGEHLAAGPTAVRERLAEVGRLSRQVLAEVDGWRVVEPVDQPTAITTLESTDGADPASVRSWLIAERGIVTTACELARAPFEMRTPVLRISPHVDVTVDELEQFAAALREAP )
Reply text: 679.7 ± 235.0 µM
